Source listed as patent US9718819B2.

Test: Determination of PK parameters in dog after intravenous bolus
Assay type: in vivo, Male beagle dogs
Conditions: male beagle dog, plasma, 50% DMSO in PEG400, read-out: Dog t1/2 (terminal half-life) (converted)
Below, each of the molecules is paired with its reported half-life value.
Write the value in h as a bare number.

N#Cc1cc(Cl)cc(Oc2c(C(F)(F)F)ncn(Cc3cc(-c4ccc(F)cc4)c(=O)[nH]n3)c2=O)c1 [Example 77] :: 79
N#Cc1cc(Cl)cc(Oc2c(C(F)(F)F)ncn(Cc3cc(C(F)(F)F)c(=O)[nH]n3)c2=O)c1 [Example 6] :: 72
N#Cc1cc(Cl)cc(Oc2c(C(F)(F)F)ncn(Cc3cc(C4CC4)n[nH]c3=O)c2=O)c1 [Example 117] :: 30
N#Cc1cc(Cl)cc(Oc2c(C(F)(F)F)ncn(Cc3cc(-c4ccccc4)n[nH]c3=O)c2=O)c1 [Example 110] :: 20
CC(F)(F)c1cc(Cn2cnc(C(F)(F)F)c(Oc3cc(Cl)cc(C#N)c3)c2=O)n[nH]c1=O [Example 104] :: 24

From here, focus on the item given below.
Task: Recorded half-life of N#Cc1cc(Cl)cc(Oc2c(C(F)(F)F)ncn(Cc3ccc(=O)[nH]n3)c2=O)c1 [Example 7] , please.
Output: 28
